# METHOD: Protein binding assay, human plasma (rapid equilibrium dialysis)
# Assay type: in vitro ADME
# ASSAY_SETUP: % bound, criterion <99%
# Protocol: The protein binding assays provide an estimate of free (unbound) fraction of the compound in the blood or brain in vivo. […] The desirable criterion for this assay is <99% of test compound bound. Test compounds were first dissolved in DMSO to a concentration of 50 μM. […] Binding of compounds to proteins was determined in the samples by rapid equilibrium dialysis after 5 and 30 min of incubation.
VALUE_TYPE: fraction unbound at 1 μM

COMPOUND	fraction unbound at 1 μM
CC(C)NC(=O)c1nn(-c2ccc(Cl)cc2)c(=O)c2c(N)scc12 [ATPZ, reference compound]	0.0098
COc1ccc(-n2nc(C(=O)N3CCC(CF)CC3)c3csc(N)c3c2=O)cc1.Cl	0.0498
CC(C)NC(=O)c1nn(-c2ccc(F)cc2)c(=O)c2c(N)scc12	0.0522
CC(C)NC(=O)c1nn(-c2ccc(OCCF)cc2)c(=O)c2c(N)scc12	0.0642

A. CC(C)NC(=O)c1nn(-c2ccc([N+](=O)[O-])cc2)c(=O)c2c(N)scc12
B. CC(C)NC(=O)c1nn(-c2ccc(O)cc2)c(=O)c2c(N)scc12
C. COc1ccc(-n2nc(C(=O)N3CCC(CCF)CC3)c3csc(N)c3c2=O)cc1
D. COc1ccc(-n2nc(C(=O)N3CCN(c4cccc(F)n4)CC3)c3csc(N)c3c2=O)cc1
Query: Order the records by fraction unbound at 1 μM, with each subsequent value no larger than the one before. List the labels, following the order given in the request.
Response: B, C, A, D
(B: 0.068, C: 0.0372, A: 0.02, D: 0.0084)
